Answer each item with its documented EC50.
Test system: A549
Assay: Cytotoxicity against human A549 cells after 6 days by MTT assay
Assay type: functional
Details: A549, 144 h, read-out: ED50 (the source's name)
# unit: µg/mL | format: bare number

In: Give the value of EC50 reported for the following: "C=C(C)[C@@H](CC)CC[C@@H](C)[C@H]1CC[C@H]2[C@@H]3C(=O)C=C4C[C@@H](O)CC[C@]4(C)[C@H]3CC[C@]12C"
Out: 1.2

In: Give the value of EC50 reported for the following: "C=C(C)[C@@H](CC)CC[C@@H](C)[C@H]1CC[C@H]2[C@@H]3C[C@@H](O)C4=CC(=O)CC[C@]4(C)[C@H]3CC[C@]12C"
Out: 2.1

In: Give the value of EC50 reported for the following: "C=C(C)[C@@H](CC)CC[C@@H](C)[C@H]1CC[C@H]2[C@@H]3[C@H](O)C=C4C[C@@H](O)CC[C@]4(C)[C@H]3CC[C@]12C"
Out: 0.5

In: Give the value of EC50 reported for the following: "C=C(C)[C@@H](CC)CC[C@@H](C)[C@H]1CC[C@H]2[C@@H]3[C@H](OO)C=C4C[C@@H](O)CC[C@]4(C)[C@H]3CC[C@]12C"
Out: 0.5

In: Give the value of EC50 reported for the following: "C=C(C)[C@@H](CC)CC[C@@H](C)[C@H]1CC[C@H]2[C@@H]3CC=C4C[C@@H](O)CC[C@]4(C)[C@H]3CC[C@]12C"
Out: 0.3

In: Give the value of EC50 reported for the following: "C=C(C)[C@@H](CC)CC[C@@H](C)[C@H]1CC[C@H]2[C@@H]3C=C[C@@]4(OO)C[C@@H](O)CC[C@]4(C)[C@H]3CC[C@]12C"
Out: 1.1
